Numbers sourced from patent US20250074980A1.

Each item that follows carries a reported koff.
Molecular target: T1, His-tagged CEACAM1 (human, UniProt P13688 35-428)
T1 construct: 45 kDa SPR analyte; also called CEACAM1-HIS; CEACAM1 analyte
T1 sequence: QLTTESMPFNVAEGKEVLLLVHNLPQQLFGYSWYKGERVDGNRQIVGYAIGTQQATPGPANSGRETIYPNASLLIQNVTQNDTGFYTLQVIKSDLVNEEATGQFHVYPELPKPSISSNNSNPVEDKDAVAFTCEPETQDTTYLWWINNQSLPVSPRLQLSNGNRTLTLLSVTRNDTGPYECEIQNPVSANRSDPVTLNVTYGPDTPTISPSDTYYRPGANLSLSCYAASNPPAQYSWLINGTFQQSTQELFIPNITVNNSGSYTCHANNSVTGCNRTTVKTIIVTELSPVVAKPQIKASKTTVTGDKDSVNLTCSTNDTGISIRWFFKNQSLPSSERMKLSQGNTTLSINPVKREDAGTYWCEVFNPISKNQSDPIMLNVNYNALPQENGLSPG
Assay: SPR single-cycle, purified IgG captured
Write the number in s⁻¹ without appending the unit.

Example binders with recorded koff:
- BINDER: "VH1/Vκ8 S29A (antibody, IgG4, V domains shown, IgG4 (S241P), kappa; also called Parent; Parent (VH1/Vκ8 S29A)) VH: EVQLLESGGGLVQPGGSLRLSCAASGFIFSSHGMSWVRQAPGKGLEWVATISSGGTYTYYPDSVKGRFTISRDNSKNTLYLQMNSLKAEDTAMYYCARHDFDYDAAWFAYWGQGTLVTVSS VL: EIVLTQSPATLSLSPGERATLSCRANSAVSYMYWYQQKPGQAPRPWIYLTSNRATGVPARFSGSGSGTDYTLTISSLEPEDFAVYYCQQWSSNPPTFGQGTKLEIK"
  OUTCOME_MEASURE: "koff"
  RESULT_VALUE: 0.19
- BINDER: "CP08H03/CP08F05 (antibody, V domains shown, IgG4 (S241P), kappa) VH: EVQLLESGGGLVQPGGSLRLSCAASGFIFSSHGMSWVRQAPGKGLEWVATISSGGTYTYYPDSVKGRFTISRDNSKNTLYLQMNSLKAEDTAMYYCARHDFDYFPYWFAHWGQGTLVTVSS VL: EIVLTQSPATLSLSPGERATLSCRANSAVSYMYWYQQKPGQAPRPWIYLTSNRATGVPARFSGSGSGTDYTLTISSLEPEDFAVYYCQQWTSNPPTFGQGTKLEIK"
  OUTCOME_MEASURE: "koff"
  RESULT_VALUE: 0.0069

INPUT: Query (binder): 8H3_9C2/CP08F05 (antibody, IgG4, V domains shown, IgG4 (S241P), kappa; also called 8H3_9C2/CPO08_F05) VH: EVQLLESGGGLVQPGGSLRLSCAASEFTFSDHAMSWVRQAPGKGLEWVATISSGGTYTYYPDSVKGRFTISRDNSKNTLYLQMNSLKAEDTAMYYCARHGFDYFPYWFAHWGQGTLVTVSS VL: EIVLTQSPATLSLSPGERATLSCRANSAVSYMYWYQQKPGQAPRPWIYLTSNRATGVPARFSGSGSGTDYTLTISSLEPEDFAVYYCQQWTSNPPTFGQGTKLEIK ; field requested: koff
OUTPUT: 0.0055
